- Tested on: HCV 2a JFH-1 Rluc cells (dicistronic genotype 2a JFH-1 replicon, RLuc reporter)
- assay.comment: microbe, parasite or virus in culture
- Assay type: cell-based
- protocol.conditions: Hepatitis C virus, 72 h, Table 2; genotype 2a JFH-1 replicon, 72 hours; read-out: 2a JFH
- Method: Evaluation of cell-based anti-HCV activity: Antiviral potency (EC50) was determined using a Renilla luciferase (RLuc)-based HCV replicon reporter assay. […] 72 hours later, cells were lysed and Renilla luciferase activity quantified as recommended by the manufacturer (Promega-Madison, Wis.). […]
pEC50: −log10 of the molar value.
readout.type: pEC50

// known answers, use as guide
| molecule | system | pEC50 |
| --- | --- | --- |
| COC(=O)N[C@H](C(=O)N1CCC[C@H]1c1ncc(-c2ccc3cc(-c4ccc(-c5cnc([C@@H]6C[C@H](C)CN6C(=O)[C@H](NC(=O)OC)c6ccccc6)[nH]5)cc4)ccc3c2)[nH]1)C(C)C | HCV 2a JFH-1 Rluc cells (dicistronic genotype 2a JFH-1 replicon, RLuc reporter) | 9.00 to 12.00 |
| COC(=O)N[C@H](C(=O)N1CCC[C@H]1c1ncc(-c2ccc3c(c2)CCc2cc(-c4ccc5nc([C@@H]6[C@H]7CC[C@H](C7)N6C(=O)[C@@H](NC(=O)OC)C6CCOCC6)[nH]c5c4)ccc2-3)[nH]1)C1CCOCC1 | HCV 2a JFH-1 Rluc cells (dicistronic genotype 2a JFH-1 replicon, RLuc reporter) | 9.00 to 12.00 |
| COC(=O)N[C@H](C(=O)N1CCC[C@H]1c1ncc(-c2ccc3cc(-c4ccc(-c5cnc([C@@H]6CC7(CN6C(=O)[C@H](NC(=O)OC)c6ccccc6)OCCO7)[nH]5)cc4)ccc3c2)[nH]1)C1CCOCC1 | HCV 2a JFH-1 Rluc cells (dicistronic genotype 2a JFH-1 replicon, RLuc reporter) | 9.00 to 12.00 |

Please find the next molecule below.
Record summary for COC(=O)N[C@H](C(=O)N1CCC[C@H]1c1ncc(-c2ccc(-c3ccc4c(ccc5nc([C@@H]6CC7(CN6C(=O)[C@@H](NC(=O)OC)C6CCOCC6)OCCO7)[nH]c54)c3)cc2)[nH]1)C(C)C : reported pEC50 = 9.00 to 12.00

====

- Test system: HCV 1a RLuc cells (dicistronic genotype 1a H77 replicon, RLuc reporter)
- assay.comment: microbe, parasite or virus in culture
- Type: cell-based
- protocol.conditions: Hepatitis C virus, genotype 1a H77 RLuc replicon; read-out: 1a
readout.type: EC50

| compound.smiles | EC50 |
| --- | --- |
| COC[C@@H]1C[C@@H](c2nc3c([nH]2)-c2cc4c(cc2CC3)-c2ccc(-c3cnc([C@@H]5CCCN5C(=O)[C@@H](NC(=O)OC)C(C)C)[nH]3)cc2CO4)N(C(=O)[C@@H](NC(=O)OC)C(C)C)C1 | 1 to 999 pM |

Please find the next molecule below.
Record summary for CC[C@H](C)[C@H](NC(=O)OC)C(=O)N1[C@@H](C)CC[C@H]1c1ncc(-c2ccc3c(c2)COc2cc4c(ccc5nc([C@@H]6C[C@H](COC)CN6C(=O)[C@H](NC(=O)OC)c6ccccc6)[nH]c54)cc2-3)[nH]1 : reported EC50 = 1 to 999 pM

====

- System: HCV 1a RLuc cells (dicistronic genotype 1a H77 replicon, RLuc reporter)
- assay.comment: microbe, parasite or virus in culture
- Assay type: cell-based
- protocol.conditions: Hepatitis C virus, genotype 1a H77 RLuc replicon; read-out: 1a
pEC50: −log10 of the molar value.
readout.type: pEC50

| molecule | system | val |
| --- | --- | --- |
| COC(=O)N[C@H](C(=O)N1[C@H](c2nc3ccc4cc5c(cc4c3[nH]2)OCc2cc(-c3cnc(C4CCCN4C(=O)[C@@H](NC(=O)OC)C4CCOCC4)[nH]3)ccc2-5)C[C@@H]2CCC[C@@H]21)C(C)C (some centres unmarked) [Example 575] | HCV 1a RLuc cells (dicistronic genotype 1a H77 replicon, RLuc reporter) | 9.00 to 12.00 |

Please find the next molecule below.
Record summary for COC[C@H]1C[C@@H](c2nc3ccc4cc(-c5ccc6c(ccc7nc([C@@H]8CCCN8C(=O)[C@@H](NC(=O)OC)C(C)C)[nH]c76)c5)ccc4c3[nH]2)N(C(=O)[C@H](NC(=O)OC)c2ccccc2)C1 [Example 540] : reported pEC50 = 9.00 to 12.00
